- ASSAY INFO: chemical genetic growth profiling, strain panel (AID 1159580);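 note: tested at 20 µM; growth read once vehicle control cultures reached saturation at 30 °C; 1 = growth at the plate median or of vehicle wells; lower values mean less growth of the strain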
- EXPERIMENTAL PARAMETERS: S. cerevisiae deletion strains, growth OD, locus YKL085W, strain MDH1, stronger effect = lower value
Out of some 5,500 compounds screened, about 2,000 (36%) were called active. Inconclusive results (about 18%) are left out. Some of the results follow.
Measured normalized growth, listed per entry for reference.

>  <COMPOUND>
CC1(C)S[C@@H]2[C@H](NC(=O)[C@H](NC(=O)N3CCNC3=O)c3ccccc3)C(=O)N2C1C(=O)O (some centres not stated)

>  <normalized growth>
0.998 (inactive)

$$$$
>  <COMPOUND>
C[N+](C)(C)CCOP(=O)([O-])OP(=O)(O)OC[C@H]1OC(n2ccc(N)nc2=O)[C@H](O)[C@@H]1O (some centres not stated)

>  <normalized growth>
1.02 (inactive)

$$$$
>  <COMPOUND>
COC(=O)COc1ccc(Cl)cc1Cl

>  <normalized growth>
0.993 (inactive)

$$$$
>  <COMPOUND>
CC1(O)/C=C/C=C(\CO)C2CC(C)(C)C2(O)CC1 (configuration not stated)

>  <normalized growth>
1.02 (inactive)

$$$$
>  <COMPOUND>
O=c1ccc2ccccc2o1

>  <normalized growth>
1.01 (inactive)

$$$$
>  <COMPOUND>
CNc1ccccc1C(=O)N1CCc2c([nH]c3ccccc23)C1=O

>  <normalized growth>
0.994 (inactive)

$$$$
>  <COMPOUND>
O=C(O)c1cc(=O)c2cc(Cl)ccc2[nH]1

>  <normalized growth>
1.02 (inactive)

$$$$
>  <COMPOUND>
NC(N)=Nc1nc(CSCCC(N)=NS(N)(=O)=O)cs1

>  <normalized growth>
0.987 (inactive)

$$$$
>  <COMPOUND>
O[C@H]1C=C2CCN3Cc4cc5c(cc4C(C23)[C@@H]1O)OCO5 (some centres not stated)

>  <normalized growth>
0.897 (active)

$$$$
>  <COMPOUND>
O=c1ccc2cc(O)c(O)cc2o1

>  <normalized growth>
1 (inactive)

$$$$
>  <COMPOUND>
CC(C)[N+](C)(CCOC(=O)C1c2ccccc2Oc2ccccc21)C(C)C

>  <normalized growth>
1.01 (inactive)

$$$$
>  <COMPOUND>
CCC1(c2ccccc2)C(=O)NCNC1=O

>  <normalized growth>
0.996 (inactive)

$$$$
>  <COMPOUND>
c1ccc(CN(CC2=NCCN2)c2ccccc2)cc1

>  <normalized growth>
1.01 (inactive)

$$$$
>  <COMPOUND>
CCC1(c2ccc(N)cc2)CCC(=O)NC1=O (configuration not stated)

>  <normalized growth>
1 (inactive)

$$$$
>  <COMPOUND>
COc1ccc(-c2coc3c(OC)c(O)ccc3c2=O)cc1

>  <normalized growth>
0.944 (inactive)

$$$$
>  <COMPOUND>
Cn1cc[nH]c1=S

>  <normalized growth>
0.967 (inactive)

$$$$
>  <COMPOUND>
CC(C)=CCc1c(O)cc(C)oc1=O

>  <normalized growth>
0.972 (inactive)

$$$$
>  <COMPOUND>
C[N+](C)(C)CC(=O)[O-]

>  <normalized growth>
0.978 (inactive)

$$$$
>  <COMPOUND>
C=C1CC[C@H](O)C/C1=C/C=C1\CCC[C@]2(C)C([C@H](C)/C=C/[C@H](C)C(C)C)CC[C@@H]12 (some centres not stated)

>  <normalized growth>
0.993 (inactive)

$$$$
>  <COMPOUND>
CC(C(=O)O)c1ccc2c(c1)[nH]c1ccc(Cl)cc12 (configuration not stated)

>  <normalized growth>
0.95 (inactive)

$$$$
>  <COMPOUND>
NC/C=C/C(=O)O

>  <normalized growth>
1.01 (inactive)

$$$$
>  <COMPOUND>
CCCCCC(C)N (configuration not stated)

>  <normalized growth>
1.05 (inactive)

$$$$
>  <COMPOUND>
C=CC(C)(C)c1c2c(c(O)c3c(=O)c4ccc(O)c(O)c4oc13)C=CC(C)(C)O2

>  <normalized growth>
0.978 (inactive)

$$$$
>  <COMPOUND>
OCC(O)Cc1ccc2c(c1)OCO2 (configuration not stated)

>  <normalized growth>
1.03 (inactive)

$$$$
>  <COMPOUND>
Nc1nc2[nH]c(=O)c(=O)[nH]c2c(=O)[nH]1

>  <normalized growth>
1.02 (inactive)

$$$$
>  <COMPOUND>
CN1CCc2cc3c(cc2C1O)OCO3 (configuration not stated)

>  <normalized growth>
0.974 (inactive)

$$$$
>  <COMPOUND>
CC(C)=CCc1c(O)cc2oc(C)cc(=O)c2c1O

>  <normalized growth>
0.983 (inactive)

$$$$
